Test system: SK-OV-3
Assay: NCI tumour cell line growth inhibition, 48 h
Calls of active or inactive are those of the source. Rule as the data show it: active = GI50 up to about 1.1 µM and inactive = higher.
Valid outcomes are listed here; reply with one: Y (active), N (inactive)

COMPOUND	MEASURED_ON	LABEL
CCOc1ccc2nc(NC(=O)C(=O)C(C(=O)c3ccccc3-c3ccccc3)C3OC(=O)c4ccccc43)sc2c1 (stereo not drawn)	SK-OV-3	N

Write down the call the test reported for this compound. Item: `CCCCCC1=C/C(=C\c2[nH]c(-c3ccc[nH]3)cc2OC)N=C1C`
Y

###

Tested on: EKVX
Test: NCI tumour cell line growth inhibition, 48 h
Calls of active or inactive are those of the source. No stated cut-off is given here; in the data, active = GI50 up to about 1.1 µM and inactive = higher.
Measured GI50 of individual entries

# example entries with known answers
> print(dat)
                                   molecule  measured.on       recorded.value
1  O=C1CCCCCCCCCCC1CN1CCOCC1 (stereo unspecified)         EKVX  > 100 µM (inactive)
2               Cc1cc(=O)n2c(cc3cccccc32)n1         EKVX  > 100 µM (inactive)
3  NS(=O)(=O)c1ccc(NC(=O)Nc2cccc3ccccc23)cc1         EKVX   28.4 µM (inactive)
4                     C1=Nc2ccccc2Cn2nncc21         EKVX   98.2 µM (inactive)
5  Cc1cccc(NC2=NC(=O)C(CC(=O)Nc3ccc(Cl)cc3C)S2)c1 (stereo unspecified)         EKVX  > 100 µM (inactive)

Tell me the measured GI50 of `O=C(O)c1[nH]c(=O)[nH]c(=O)c1CN1CCCCC1` , please.
> 100 µM (inactive)

Tell me the measured GI50 of `C=C[C@@]1(O)CCCC2=C(C(=O)OCC)CC[C@]21C` , please.
> 100 µM (inactive)

Tell me the measured GI50 of `CO/N=C\c1cc(O)c(O)c(/C=N/OC)c1` , please.
47.4 µM (inactive)

Tell me the measured GI50 of Cc1ccc(C)c(N2C(=O)C(=O)C(c3nc4ccccc4o3)/C(=N\NC(=O)c3ccccc3O)C2=O)c1 (stereo unspecified) , please.
22.8 µM (inactive)

Tell me the measured GI50 of `CC(=O)OCc1cc(=O)n(C)c2c3c4c(cc12)c(C)cc(=O)n4CO3` , please.
2.44 µM (inactive)

Tell me the measured GI50 of CC(/C=C/C=C/C=C/C=C/C=C/C(=O)C1=C(O)C(CCC(=O)O)N(C)C1=O)=C\C(C)C(OC1CC(O)C(O)C(C)O1)C(C)C (stereo unspecified) , please.
3.31 µM (inactive)

###

Test system: SK-MEL-2
Assay: NCI tumour cell line growth inhibition, 48 h
Activity calls are given as the source filed them. Cut-off read from the data, not from the text of the source: active = GI50 up to about 1.1 µM and inactive = higher.
Measured GI50 of individual entries

> print(dat)
                                   compound       recorded.value
1  N[C@@H](Cc1ccccc1)C(=O)N1CCC[C@@H]1P(=O)(Oc1ccccc1)Oc1ccccc1  > 100 µM (inactive)

Tell me the measured GI50 of `C[C@@H]1[C@H](O)CC2=C(CC[C@@H](O)C2(C)C)[C@@]1(CO)CCc1ccoc1` , please.
> 50 µM (inactive)

Tell me the measured GI50 of CCOP(=O)(OCC)C(Nc1ccc(Br)cc1)c1cccc([N+](=O)[O-])c1 (stereo not drawn) , please.
16.7 µM (inactive)
